compounds and their reported ILS at 20 mg/kg
system: L1210; assay: Increase in life span of mice infected with L1210 leukemia after an intraperitoneal dose of 20 mg/kg for 9 days; type: functional; conditions: Mus musculus, L1210, ip, 216 h

compound | ILS at 20 mg/kg (%)
CN(Cc1cnc2nc(N)nc(N)c2n1)c1ccc(C(=O)NC(CCCCCCCCCCC(=O)O)C(=O)O)cc1 (stereo not given) | 137
CN(Cc1cnc2nc(N)nc(N)c2n1)c1ccc(C(=O)NC(CCCCCCCCC(=O)O)C(=O)O)cc1 (stereo not given) | 73
CN(Cc1cnc2nc(N)nc(N)c2n1)c1ccc(C(=O)NC(CCCCCCCC(=O)O)C(=O)O)cc1 (stereo not given) | 55
CN(Cc1cnc2nc(N)nc(N)c2n1)c1ccc(C(=O)NC(CCCCCCCCCC(=O)O)C(=O)O)cc1 (stereo not given) | 98
CN(Cc1cnc2nc(N)nc(N)c2n1)c1ccc(C(=O)NC(CCCCCCC(=O)O)C(=O)O)cc1 (stereo not given) | 68
